Target: Caspase-3 (Homo sapiens) (UniProt P42574)
Sequence (whole entry): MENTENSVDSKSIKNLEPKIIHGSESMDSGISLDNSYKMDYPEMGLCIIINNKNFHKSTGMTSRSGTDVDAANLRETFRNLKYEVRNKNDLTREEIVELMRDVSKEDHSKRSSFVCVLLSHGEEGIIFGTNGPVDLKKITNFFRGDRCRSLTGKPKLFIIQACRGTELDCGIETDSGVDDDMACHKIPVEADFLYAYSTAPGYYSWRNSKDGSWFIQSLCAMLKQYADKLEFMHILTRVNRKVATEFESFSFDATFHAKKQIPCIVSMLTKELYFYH
Test: Inhibitory activity against caspase-3 (Csp-3)

{"molecule smiles": "CC(C)[C@H](NC(=O)COc1cccc2ccccc12)C(=O)N[C@@H](CC(=O)O)C(=O)COc1cccc(OC(F)(F)F)c1", "k3/Ki, M⁻¹ s⁻¹": 30600}
{"molecule smiles": "CC(C)[C@H](NC(=O)COc1cccc2ccccc12)C(=O)N[C@@H](CC(=O)O)C(=O)COc1ccc(Oc2ccc(C(F)(F)F)cc2)cc1", "k3/Ki, M⁻¹ s⁻¹": 6930}
{"molecule smiles": "CC(C)[C@H](NC(=O)COc1cccc2ccccc12)C(=O)N[C@@H](CC(=O)O)C(=O)COc1cc(F)c(F)cc1F", "k3/Ki, M⁻¹ s⁻¹": 24400}
{"molecule smiles": "CC(C)[C@H](NC(=O)COc1cccc2ccccc12)C(=O)N[C@@H](CC(=O)O)C(=O)COc1ccc(C(F)(F)F)cc1", "k3/Ki, M⁻¹ s⁻¹": 13200}
{"molecule smiles": "CC(C)[C@H](NC(=O)COc1cccc2ccccc12)C(=O)N[C@@H](CC(=O)O)C(=O)COc1c(F)cc(F)cc1F", "k3/Ki, M⁻¹ s⁻¹": 114000}
{"molecule smiles": "CC(C)[C@H](NC(=O)COc1cccc2ccccc12)C(=O)N[C@@H](CC(=O)O)C(=O)CF", "k3/Ki, M⁻¹ s⁻¹": 207000}
{"molecule smiles": "CC(C)[C@H](NC(=O)COc1cccc2ccccc12)C(=O)N[C@@H](CC(=O)O)C(=O)COc1cccc(F)c1F", "k3/Ki, M⁻¹ s⁻¹": 28800}
{"molecule smiles": "CC(C)[C@H](NC(=O)COc1cccc2ccccc12)C(=O)N[C@@H](CC(=O)O)C(=O)COc1c(F)c(F)c(-c2c(F)c(F)c(F)c(F)c2F)c(F)c1F", "k3/Ki, M⁻¹ s⁻¹": 52100}
{"molecule smiles": "CC(C)[C@H](NC(=O)COc1cccc2ccccc12)C(=O)N[C@@H](CC(=O)O)C(=O)COc1ccc2ccccc2c1", "k3/Ki, M⁻¹ s⁻¹": 7520}
{"molecule smiles": "CC(C)[C@H](NC(=O)COc1cccc2ccccc12)C(=O)N[C@@H](CC(=O)O)C(=O)COc1c(F)c(F)cc(F)c1F", "k3/Ki, M⁻¹ s⁻¹": 268000}
{"molecule smiles": "CC(C)[C@H](NC(=O)COc1cccc2ccccc12)C(=O)N[C@@H](CC(=O)O)C(=O)COc1cc(F)cc(F)c1F", "k3/Ki, M⁻¹ s⁻¹": 60100}
{"molecule smiles": "CC(C)[C@H](NC(=O)COc1cccc2ccccc12)C(=O)N[C@@H](CC(=O)O)C(=O)COc1cccc(C(F)(F)F)c1F", "k3/Ki, M⁻¹ s⁻¹": 33900}
{"molecule smiles": "CC(C)[C@H](NC(=O)COc1cccc2ccccc12)C(=O)N[C@@H](CC(=O)O)C(=O)COc1ccc(F)cc1", "k3/Ki, M⁻¹ s⁻¹": 8560}
{"molecule smiles": "CC(C)[C@H](NC(=O)COc1cccc2ccccc12)C(=O)N[C@@H](CC(=O)O)C(=O)COc1c(Cl)cccc1Cl", "k3/Ki, M⁻¹ s⁻¹": 179000}
{"molecule smiles": "CC(C)[C@H](NC(=O)COc1cccc2ccccc12)C(=O)N[C@@H](CC(=O)O)C(=O)COc1cccc(F)c1", "k3/Ki, M⁻¹ s⁻¹": 17800}
